assay: yeast display, Sf9 membrane polyspecificity reagent, FACS + sequencing; frameworks hold sequencing errors
quantity-name: polyreactivity (PSR sort gate)

biopolymer-sequence	quantity-name	observed
QVQLVESGGGLVQAGGSLRLSCAASGNTVFKNAMVWYRQAPGKERELVAAISKRGGSTYYADSVKGRFTISRDNAKNTVYIQMNSLIPEDTAVYYCAADTFGVYASTYDYWGQGTQVTVSS	polyreactivity (PSR sort gate)	high polyreactivity
QVQLVESGGGLVQAVGSLRLSCAASGSTFGEYAMGWYRQAPGKERELVAVITSDDNTYYADSVKGRFTISRDNAKNTVYLQMNSLKPEDTAVYYCATDDRRRFKYWGQGTQVTVSS	polyreactivity (PSR sort gate)	high polyreactivity

---

assay: yeast display, Sf9 membrane polyspecificity reagent, FACS + sequencing; frameworks hold sequencing errors
quantity-name: polyreactivity (PSR sort gate)

Guide cases for polyreactivity (PSR sort gate), answers given:
biopolymer-sequence	polyreactivity (PSR sort gate)
QVQLVESGGGLVQAGGSLRLSCAASGRTFTTNAMGWYRQAPGKERELVAAITIGDDTYYADSVKGRFTISRDNAKNTVYLQMNSLKPEDTEVYYCSADYKRVPFVTQYVSKDGYWGHGTQVTVSS	low polyreactivity
QVQLVESGGGLVQAGGSLRLSCAASGFIFYAYTMGWYRQAPGKERELVAAISRSGGRTYYADSVKGRFTISRDNAKNTVYLQMNSLKPEDTAVYYCAAEYRGVPRVVVDYDYWGQGTQVTVSS	high polyreactivity
QVQLVESGGGLVQAGGSLRLSCAASGRTFHYYAMGWYRQAPGKERELVASITYNGGDTYYADSVKGRFTISRDNAKNTVYLQMNSLKPEDTAVYYCAAEYYGHRYDYWGQGTQVTVSS	low polyreactivity
QVQLVESGGGLVQAGGSLRLSCAASGRTFYFYAMGWSRQSPGKERELVADIRGISGSTYYADSVKGRFTISRDNAKNTVYLQMNSLKPEDTAVYYCAADPYLGRAWRGRGYYWGQGTQVTVSS	high polyreactivity

Proceeding to the next sequence to report its polyreactivity (PSR sort gate).
GET /values?readout=polyreactivity (PSR sort gate)&item= QVQLVESGGGLVQAGGSLRLSCAASGRIFVTYAMGWYRQAPGTERELVAAINSSVSSTRYADSVKGRFTMSRDNAKNTVYLQMNSLKPEDTAVYYCAAVYRYVRPIAKDEYWGQGTQVTVSS
low polyreactivity

---

assay: yeast display, Sf9 membrane polyspecificity reagent, FACS + sequencing; frameworks hold sequencing errors
quantity-name: polyreactivity (PSR sort gate)

Guide cases for polyreactivity (PSR sort gate), answers given:
biopolymer-sequence	polyreactivity (PSR sort gate)
QVQLVESGGGLVQAGGSLRLSCAASGSIFVYYAMGWYRQAPGKERELVAAISSRGGRTYYADSVKGRFTISRDNAKNTVYLQMNSLKPEDTAVYYCAAVSSRLWLYDYWGQGTQVTVSS	high polyreactivity
QVQLVESGGGLVQAGASLRLSCAASGSIFRVYAMGWYRQAPGKERELVATIDTSTDSTYYADSVKGRFTISRDNAKNTVYIQMNSLKPEDTAVYYCNARGTYARYFQYDYSGQGTQVTVSS	low polyreactivity
QVQLVESGGGLVQAGGSLRLSCAASGSTFTGYAMGWYRQAPGKERELVAGITGSGGSTYYADSVKGRFTISRDNATNTVYLQMNSLKPEDTAVFYCAAAFWYQYVWLDYYWGQGTQVTVSS	low polyreactivity
QVQLVESGGGLVQAGGSLRLSCAASGSILVQSAMGWERQAPGKERELVAAISRGGSTNYADSVKGRFTISRDNPKNTVYLQMNSLKPEDTAVYYCAARRPWGEYYWGQGTQVNVSS	low polyreactivity
QVQLVESGGGLVQAGGSLRLSCAASGITFGRNTMGWYRQAPGKERELVAAIDSGGNTYADSVKGRFTISRDNAKNTVFLQMNSLKPEDTAVYYCAVDGGEFSSYGYWGQGTQVTVSS	low polyreactivity

Proceeding to the next sequence to report its polyreactivity (PSR sort gate).
GET /values?readout=polyreactivity (PSR sort gate)&item= QVQLVESGGGLVQAGGSLRLSCAASGSTFRWYAMGWYRQAPGKERELVAAISARGTSTYYADSVKGRFTISRDNAKNTVYLQMNSLKPEDTAVYYCAATRTYQLYRWAPRYYYWGQGTQVTVSS
high polyreactivity

---

assay: yeast display, Sf9 membrane polyspecificity reagent, FACS + sequencing; frameworks hold sequencing errors
quantity-name: polyreactivity (PSR sort gate)

Guide cases for polyreactivity (PSR sort gate), answers given:
biopolymer-sequence	polyreactivity (PSR sort gate)
QVQLVESGGGLVQAGGSLRLSCAASGLIFYGNAMGWSRQAPGKERELVAAISRRGGRTYYADSVKGRFTISRDNAKNTVYLQMNSLKPEDTAVYYCDADVIYSGDYWGQGTQVTVSS	high polyreactivity
QVQLVESGGGLVQAGGSLRLSCAASGSIFSRNAMGWSRPAPGKERELVAAISWSGGRKYYADSVKGRFTISRDNAKNTVYLQMNSLKPEDTAVYYCAAKVGYLAAYGRIRVYRYGYWGQGTQVTVSS	high polyreactivity
QDQLVESGGGLVQAGGSLRLSCAASGSIFYYYVMGWYRQETGKEREFVAAISWGGDSTYYADSVKGRFTISRDNAKNTVYLQMNSLKTEDTAVYYCKADYPWSVLAYDYWGQGTQVTVSS	low polyreactivity
QVQLVESGGGLVQAGGSLRLSCAASGSTFGYYAMGWYRQAPGKERELVAAISRSGTRTYYADSVKGRFTISRDNAKYTVYLQMNSLKPEDTAVYYCAVKGPARGYDYWGQGTQVTVSS	high polyreactivity

GET /values?readout=polyreactivity (PSR sort gate)&item= QVQLEESGRGLVQAGGSLRLSCAASGSISGYYAMGWYRQAPGKERELVAVITSSGTSTYYADSVKGRFTISRDNAKNTVYLQMNSLKPEDTAVYDCWGQGTQVTVSS
low polyreactivity

Query QVQLVESGGGLVQAGGSLRLSCAASGSTFVGYAMGWYRQAPGKERELVAAISGRGGSTYYADSVKGRFTISRDNAKNTVYLQMNSLKPEDTAVYYCNARRRKTVPNYIYNYWGQGTQVTVSS next
high polyreactivity

Query QVQLVESGGGLVQAGGSLRLSWAASGSIFGWYGMGWYSPAPGKERELVAAITRGGSTYYADSVKGRFTISRDNAKNTVYLQMNSLKPEDTAGYYCAKRSGQQYGGYGYWGQGTQVTVSS next
low polyreactivity

Query QVQLVESGGGLVQAGGSLRLSCAASGYTFVRYAMGWYRQAPGKERELVAAISRSGGSTYYADSVKGRFTISRDNAKNTVYLQMNSLKPEDTAVYYCNAYPYSYYDYDYWGQGTQVTVSS next
high polyreactivity

Query QVQLVESGGGLVQAGGSLRLSCAASGRIFYSYVMGWYRQAPGKDRELVGAITRSGGTTYYADSVMGRFTISRDNANNPVYLQMNSLKPEDTAVYYCATRSIFNGYGYYHPYNFWGQGTQVTVSS next
high polyreactivity

Query QVQLVESGGGLVQAGGSLRLSCAASGRIFGTYAMGWYRQAPGKERELVAAITSGGRTYYADSVKGRFTISRDNAKNTVYLQMNSLKPEDTAVYYCNAVRYYVYDRRFNYWGQGTQVTVSS next
high polyreactivity

Query QVQLVESGGGLVQAGGSLRLSCAASGRTSSINAMGWYRQAPGKERELVAVITGGGRTSYADSVKGRFTISRDNAKNTVDLQMNSLIPEDTAVYYCNATRSYYGYYYWGQGTQVTVSS next
high polyreactivity

Query QVQLVESGGGLVQAGGSLRLSCAASGSIFVYYTMGWYRQAPGKERELVASITSGGNTNYADSVKGRFTISRDNAKNTVYLQMNSLKPEDTAVYYCAADYQTVTQADWGTVYDYDYWGQGTQVTVSS next
low polyreactivity

Query QVQLVESGGGLVQAGGSLRLSCAASGSIFYVYAMGWYRQAPGKEREMVAAINTSGGSTFYADSVKGRFTISRDNAKNTVYLQMNSLKPEETAVYYCAAERYRYRSTDTMVYWGQGTQVTVSS next
low polyreactivity

Query QVQLVESGGGLVQAGGSLRLSCAASGRILVQNDMGWYRQEPGKERELVAAIRSDGSTSYADSVKGRFTISRDNAKNTVYLQMNSLKPEDTAFYYCAARIDWTGGEYDYWGQGTQVTVSS next
low polyreactivity

Query QVQLVETGGALVQAGGSLRLSCAASGFTFIDYTMGCYSQAPGKERELVARITDTGSTNYADSVKVRFTISRDNAKNTVYLQMNSLKQEDTAVYYCNKDDRNDRTIPGYDPEYDYWGQGTQVTVSS next
low polyreactivity

Query QVQLVESGGGFVQAGGSLRLSCAASGRTFPRYAMGWYRQAPGKERELVAAITRGGGTNYADSVKGRFTISRDNAKNTVYLQMNSLKPEDTAVYYCNRALLYRGYKFDYWGQGTHVTVSS next
high polyreactivity

---

assay: yeast display, Sf9 membrane polyspecificity reagent, FACS + sequencing; frameworks hold sequencing errors
quantity-name: polyreactivity (PSR sort gate)

Guide cases for polyreactivity (PSR sort gate), answers given:
biopolymer-sequence	quantity-name	observed
QVQLVESGGGLVQAGGSLRLSCAASGFIFLSNGMVWYRQAPGKERELVAAISSSGGSTYYADSVKGRFTISRDTAKNTVYLQMNSLKPEDTAVYYCAKDNGPWFAYDYWGQGSQVTVSS	polyreactivity (PSR sort gate)	low polyreactivity
QVQLVESGGGLVQAGGSLRLSCAASGLILYSYAMGWYRQAPGKERELVADISSGGITNYADSVKGRFTISRDNAKNTVYLQMNSLKPEDTAFYYCNADSYGGNLYIWEYYYWGQGTQVTVSS	polyreactivity (PSR sort gate)	low polyreactivity
QDQLVESGGGLVQAGGSLRLSCASSGFTIVYYAMGWYRQAPGKERELVADISSYGSTYADSVKGRFTISRDNAKNTVYLLMNSLKPEDTAVYYCAAEYIYQPHYGYYYWGQGTQVTVSS	polyreactivity (PSR sort gate)	high polyreactivity
HVQLVESGGGLVQAGGSLRLSCAASGGTFYTYVMGWYRPAPGKERELVAAISGSGGSTYYADSVKGRFTISRDNAKNTVYLQMNSLKPEDTAVYYCAAVLYYGDIPYYYWGQGTQVTVSS	polyreactivity (PSR sort gate)	high polyreactivity
QVQLVESGGGLVQAGGSLRLSCAASGLIFTNYAMGWYRQAPGKERELVAGISTRGTSTYYADSVKGRFTISRDNAKNTVYLQMNSLKPEDTAVYYCAAVHRVVRAYDYWGQGTQVTVSS	polyreactivity (PSR sort gate)	high polyreactivity

GET /values?readout=polyreactivity (PSR sort gate)&item= QVQLVESGGGLVQEGGSLRLSCAASGSTFGLYAMGWYRQAPGKERELVAAISSRGSRTYYADSVKGRFTISRDNAKNTVYLQMNSLKPEDTAVYYCNAMYASCVRHKVTYDYWGQGTLVTVSS
high polyreactivity

Query QVQLVESGGGLVQAGGSLRLSCAASGSIFKYYAMGWYRQAPGKERELVAAISFSGGSTYYADSVKGRFTISRDNAKNTVYLQMNSLKPEDTAVYYCAVLGVWGYGYWGQGTQVTVSS next
high polyreactivity
